Would you kindly list growth inhibition for each of these molecules?
- EXPERIMENT NOTES: NCI Yeast Anticancer Drug Screen. Data for the bub3 strain (AID 167)
- CONDITIONS USED: S. cerevisiae bub3 mutant strain, stronger effect = higher value; at 50.0 µM unless noted
The panel holds about 79,000 compounds, 15% with a hit somewhere; the sample as a whole holds those more often.
Expressed in %, but write only the number.

q: Looking for the measured growth inhibition of CCC(C)C(O)C(C(=O)O)C1CCCCC1 (stereo not drawn) , can you help?
a: 23.9

q: What growth inhibition value was documented for this molecule, `Oc1ccc(-c2nc(-c3cccnc3)c(-c3ccc(F)cc3)[nH]2)cc1` ?
a: 12.5

q: State the recorded growth inhibition for this entry: `CCCCCCCCCCCCCCCCCCCCCCCCCCBr`
a: 10.4

q: Which measured growth inhibition value corresponds to CC(C)CCCC(C)C1CCC2C3CC4OC45CC(O)CCC5(C)C3CCC12C (stereo not drawn) ?
a: -1.1

q: Quick one: growth inhibition of `OCCN/N=C/c1ccncc1` ?
a: -14.3

q: GET /values?readout=growth inhibition&item= `CCc1ccc(O)cc1O`
a: -30.6

q: Data request, read-out growth inhibition, for `C=CCn1c(=O)c2ccccc2[n+]2c(C)c(C(=O)OCC)sc12`
a: 2.45

q: Given the molecule `Cc1ccc2nc(Sc3c([N+](=O)[O-])ncn3C)[nH]c2c1` , what is its reported growth inhibition?
a: -20.7

q: For the molecule shown here, `O=Cc1ccc(C=O)o1` , give the reported growth inhibition.
a: -11.7

q: If you can, please state the reported growth inhibition value of `CC[N+](CC)(CC)CCOC(=O)c1cc(OC)c(OC)c(OC)c1` .
a: 4.1

q: Dear colleague, I am looking for the recorded growth inhibition of the following molecule: `COC(=O)c1ccccc1NC(=O)c1c(-c2ccccc2Cl)noc1C`
a: 77.2

q: Data request, read-out growth inhibition, for `Cc1cc(C)nc(NS(=O)(=O)c2ccc(NC(=O)NC(F)(F)F)cc2)n1`
a: 26.9

q: Can you look up the measured growth inhibition of CCN(CC)CC(C)O (stereo not drawn) for me?
a: -9.45
